Measured values drawn from paper PMC5054432 for this set.

target: wt GluN1/GluN2B receptors (UniProt P35439+Q01097); experiment: Ifenprodil and Zn2+ inhibition dose-response, TEVC in Xenopus laevis oocytes; format: cell-based, rat GluN1-1a, mouse GluN2B; conditions: after UV
Sequence (Q01097 27-1482, other chains not shown): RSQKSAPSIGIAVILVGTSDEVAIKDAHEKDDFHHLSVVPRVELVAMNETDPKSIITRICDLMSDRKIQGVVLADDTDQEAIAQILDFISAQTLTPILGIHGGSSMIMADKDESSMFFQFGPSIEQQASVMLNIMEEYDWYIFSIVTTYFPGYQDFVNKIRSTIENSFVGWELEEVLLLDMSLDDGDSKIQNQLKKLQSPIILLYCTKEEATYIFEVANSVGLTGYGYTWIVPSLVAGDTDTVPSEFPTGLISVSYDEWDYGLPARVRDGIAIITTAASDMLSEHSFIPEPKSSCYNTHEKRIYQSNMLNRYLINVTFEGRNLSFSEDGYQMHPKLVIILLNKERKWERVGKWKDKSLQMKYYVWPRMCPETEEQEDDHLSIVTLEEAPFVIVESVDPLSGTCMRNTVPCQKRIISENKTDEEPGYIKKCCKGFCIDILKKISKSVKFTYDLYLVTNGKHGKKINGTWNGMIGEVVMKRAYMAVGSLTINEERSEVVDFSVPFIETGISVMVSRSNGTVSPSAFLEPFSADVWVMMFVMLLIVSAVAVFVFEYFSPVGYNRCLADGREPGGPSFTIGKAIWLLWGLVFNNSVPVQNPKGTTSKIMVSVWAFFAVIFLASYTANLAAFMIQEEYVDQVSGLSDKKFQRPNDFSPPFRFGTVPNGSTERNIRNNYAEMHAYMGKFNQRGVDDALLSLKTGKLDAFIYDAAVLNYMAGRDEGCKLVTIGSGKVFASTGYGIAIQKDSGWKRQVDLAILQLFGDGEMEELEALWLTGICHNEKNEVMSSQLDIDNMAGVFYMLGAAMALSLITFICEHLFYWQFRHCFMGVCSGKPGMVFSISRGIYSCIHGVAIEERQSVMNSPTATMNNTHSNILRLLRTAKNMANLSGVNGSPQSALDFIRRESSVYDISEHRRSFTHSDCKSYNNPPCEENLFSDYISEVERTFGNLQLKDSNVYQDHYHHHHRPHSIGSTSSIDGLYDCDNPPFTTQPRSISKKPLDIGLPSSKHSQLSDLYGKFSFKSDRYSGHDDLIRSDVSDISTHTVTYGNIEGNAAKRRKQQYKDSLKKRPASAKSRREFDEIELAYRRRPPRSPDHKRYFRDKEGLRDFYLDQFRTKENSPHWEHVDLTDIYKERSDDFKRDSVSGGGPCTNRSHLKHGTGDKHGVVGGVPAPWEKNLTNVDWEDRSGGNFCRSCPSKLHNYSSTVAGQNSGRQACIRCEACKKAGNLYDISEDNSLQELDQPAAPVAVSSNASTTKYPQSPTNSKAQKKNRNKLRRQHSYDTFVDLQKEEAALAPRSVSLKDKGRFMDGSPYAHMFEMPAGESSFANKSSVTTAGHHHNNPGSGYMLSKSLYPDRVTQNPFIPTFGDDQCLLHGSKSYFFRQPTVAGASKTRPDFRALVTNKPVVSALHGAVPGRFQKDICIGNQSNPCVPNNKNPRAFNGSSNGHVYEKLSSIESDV
quantityMeasured: IC50 (nM)
Number in nM, nothing else.

According to the records, this compound [Cl-].[Cl-].[Zn+2] displays IC50 of 720
